Where these numbers come from: the supplement of paper PMC7877785

# assay.text: self-splicing fitness, log relative to wild type (ln ratio); higher = more splicing; Tetrahymena group I intron in knt gene, E. coli kanamycin selection, DiMSum; sequences stand for … in CUCUCU…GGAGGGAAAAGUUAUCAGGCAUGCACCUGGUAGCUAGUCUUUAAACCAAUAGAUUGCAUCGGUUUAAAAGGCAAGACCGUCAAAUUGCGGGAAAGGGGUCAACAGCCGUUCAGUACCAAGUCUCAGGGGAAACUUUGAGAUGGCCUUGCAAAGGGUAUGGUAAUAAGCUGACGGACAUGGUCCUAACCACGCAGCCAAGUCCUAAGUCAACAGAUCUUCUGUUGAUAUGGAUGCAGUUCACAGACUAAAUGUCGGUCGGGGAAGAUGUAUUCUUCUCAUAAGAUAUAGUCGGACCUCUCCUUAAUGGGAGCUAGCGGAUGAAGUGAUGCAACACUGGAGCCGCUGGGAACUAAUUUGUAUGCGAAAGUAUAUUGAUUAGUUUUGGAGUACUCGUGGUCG;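 further: selection with 25 µg/mL kanamycin versus none on LB agar overnight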
# study.conditions: 37 °C
Give Fulfilled when the value for self-splicing fitness (ln) is at least -2. Give Not fulfilled when it is less.

Some solved cases for reference:
{"columns": ["residues", "assigned.label"],
 "data": [
  ["GACUAGCAAUAUUACGCCAA", "Fulfilled"],
  ["UGGGAGCAAUAUUACGCAUA", "Fulfilled"],
  ["UACCAGCAAUAUUACGAUGC", "Not fulfilled"],
  ["UCCAAGCAAUAUUACGUAAU", "Fulfilled"],
  ["CCAAAGCAAUAUUACGGGGC", "Not fulfilled"]
]}

Now look at this entry.
Given GGAUAGCAAUAUUACGCGGU , state whether its self-splicing fitness (ln) is at least -2.
Not fulfilled
